target: human recombinant serotonin (5-Hydroxytryptamine) 5-HT5A receptor (Homo sapiens, UniProt P47898); construct: expressed in transfected cells; host or cells: CHO-K1; test: Serotonin 5-HT5A radioligand binding ([3H]LSD); conditions: compound at 0.1 μM; read-out: Inhibition of ligand binding, Serotonin 5-HT5A (percent inhibition of specific binding)
Sequence (P47898 whole entry): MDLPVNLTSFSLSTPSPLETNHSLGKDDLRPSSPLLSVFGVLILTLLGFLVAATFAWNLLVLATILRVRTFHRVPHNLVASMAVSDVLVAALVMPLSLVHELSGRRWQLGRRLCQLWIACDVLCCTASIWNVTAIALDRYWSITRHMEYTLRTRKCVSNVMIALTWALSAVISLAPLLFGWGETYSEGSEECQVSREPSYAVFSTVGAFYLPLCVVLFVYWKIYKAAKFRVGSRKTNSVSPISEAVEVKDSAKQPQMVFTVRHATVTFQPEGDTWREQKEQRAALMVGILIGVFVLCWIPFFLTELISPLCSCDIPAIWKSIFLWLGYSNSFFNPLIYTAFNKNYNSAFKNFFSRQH
Reported inhibition at 0.1 µM values for the following molecules.
OBSERVABLE: inhibition at 0.1 µM (%)

[[record]]
smiles_text = "COc1ccc(-c2cscc2-n2c3c(c4cc(C)ccc42)CN(C)CC3)cc1"
units_symbol = "%"
recorded_result = 94

[[record]]
smiles_text = "CC(=O)Nc1ccc(-c2cccc(-n3c4c(c5cc(C)ccc53)CN(C)CC4)c2)cn1"
units_symbol = "%"
recorded_result = 37

[[record]]
smiles_text = "Cc1cc(C)c2c(c1)c1c(n2-c2ccc3ncccc3c2)CCN(C)C1"
units_symbol = "%"
recorded_result = 10

[[record]]
smiles_text = "Cc1csc(-c2ccc(-n3c4c(c5cc(C)ccc53)CN(C)CC4)nc2)c1"
units_symbol = "%"
recorded_result = 38

[[record]]
smiles_text = "Cc1ccc2c(c1)c1c(n2-c2cscc2-c2ccc(C)s2)CCN(C)C1"
units_symbol = "%"
recorded_result = 93

[[record]]
smiles_text = "Cc1ccc2c(c1)c1c(n2-c2cscc2-c2ccnn2C)CCN(C)C1"
units_symbol = "%"
recorded_result = 65

[[record]]
smiles_text = "Cc1ccc2c(c1)c1c(n2-c2cnc3ccccc3c2)CCN(C)C1"
units_symbol = "%"
recorded_result = 22

[[record]]
smiles_text = "Cc1ccc2c(c1)c1c(n2-c2cscc2C(=O)N(C)C)CCN(C)C1"
units_symbol = "%"
recorded_result = 14

[[record]]
smiles_text = "CNC(=O)c1ccc(-c2cscc2-n2c3c(c4cc(C)ccc42)CN(C)CC3)cc1"
units_symbol = "%"
recorded_result = 69

[[record]]
smiles_text = "Cc1cc(C)c2c(c1)c1c(n2-c2cccc(-c3ccncc3)c2)CCN(C)C1"
units_symbol = "%"
recorded_result = 26

[[record]]
smiles_text = "Cc1ccc2c(c1)c1c(n2-c2cccc(-c3ccc(C)s3)c2)CCN(C)C1"
units_symbol = "%"
recorded_result = 30

[[record]]
smiles_text = "Cc1ccc2c(c1)c1c(n2-c2ccc(-c3ccc4c(ccn4C)c3)cn2)CCN(C)C1"
units_symbol = "%"
recorded_result = 50

[[record]]
smiles_text = "CNC(=O)c1ccc(-c2cscc2-n2c3c(c4cc(C)ccc42)CN(C)CC3)cn1"
units_symbol = "%"
recorded_result = 48

[[record]]
smiles_text = "Cc1ccc2c(c1)c1c(n2-c2ccc(-c3ccc(C)nc3)cn2)CCN(C)C1"
units_symbol = "%"
recorded_result = 41

[[record]]
smiles_text = "Cc1ccc2c(c1)c1c(n2-c2cscc2-c2ccc3c(ccn3C)c2)CCN(C)C1"
units_symbol = "%"
recorded_result = 93

[[record]]
smiles_text = "CNC(=O)c1cccc(-c2cscc2-n2c3c(c4cc(C)ccc42)CN(C)CC3)c1"
units_symbol = "%"
recorded_result = 85

[[record]]
smiles_text = "Cc1ccc2c(c1)c1c(n2-c2ccc3nc(C)ccc3c2)CCN(C)C1"
units_symbol = "%"
recorded_result = 20

